The origin of these recorded values is ChEMBL document CHEMBL4028802.

Species: Homo sapiens
measurement_protocol: Liver toxicity in human assessed as induction of drug-induced liver injury by measuring severity class index; further: key of the grades not given here
Assign Yes whenever DILI_severity_class does not fall below 3; assign No whenever it does.

Q) Hi team, for `Nc1c(CC(=O)O)cccc1C(=O)c1ccc(Br)cc1` , is the recorded DILI_severity_class at or above 3?
A) Yes

Q) Hi team, for `Oc1ccc2c3c1O[C@H]1[C@@H](O)CC[C@@]4(O)[C@@H](C2)N(CC2CCC2)CC[C@]314` , is the recorded DILI_severity_class at or above 3?
A) No

Q) Hi team, for `COc1ccc2c(c1)c(CC(=O)O)c(C)n2C(=O)c1ccc(Cl)cc1` , is the recorded DILI_severity_class at or above 3?
A) Yes

Q) Hi team, for `O=C(O)c1cc(-c2ccc(F)cc2F)ccc1O` , is the recorded DILI_severity_class at or above 3?
A) Yes

Q) Hi team, for `CCOC(=O)[C@H](CCc1ccccc1)N[C@@H](C)C(=O)N1[C@H](C(=O)O)C[C@H]2CCCC[C@@H]21` , is the recorded DILI_severity_class at or above 3?
A) Yes

Q) Hi team, for Cc1cccc(Nc2ccncc2S(=O)(=O)NC(=O)NC(C)C)c1 [TORSEMIDE] , is the recorded DILI_severity_class at or above 3?
A) No

Q) Hi team, for O=C1CCC(N2C(=O)c3ccccc3C2=O)C(=O)N1 (stereo not drawn) [THALIDOMIDE] , is the recorded DILI_severity_class at or above 3?
A) Yes

Q) Hi team, for `OC(Cn1cncn1)(Cn1cncn1)c1ccc(F)cc1F` , is the recorded DILI_severity_class at or above 3?
A) Yes

Q) Hi team, for `O=C1O[C@H]([C@@H](O)CO)C(O)=C1O` , is the recorded DILI_severity_class at or above 3?
A) No
